Tested on: mice
Measurement Protocol: Neuropharmacological Assay (SmartCube)
Type: in vivo
Measurement Setup: i.p. 15 min before behavioral test; 3 doses, most efficacious dose(s) presented
Experimental Endpoint: SD: sedative hypnotic (probability of class match)

Before answering, review these 5 worked examples.
molecule="CCN(C)CC1OCCCn2nc3ccccc3c21.Cl (stereo not shown)" result="++ (5%≦ ++ <25%)"
molecule="CN(CC1OCCn2nc3ccccc3c21)C1CC1 (stereo not shown)" result="+ (LOQ≦ + <5%)"
molecule="Cl.c1ccc2c3n(nc2c1)CCOC31CCNC1 (stereo not shown)" result="+ (LOQ≦ + <5%)"
molecule="CNCC1OCCn2nc3ccc(F)cc3c21 (stereo not shown)" result="+ (LOQ≦ + <5%)"
molecule=CCN(C)C[C@H]1OCCn2nc3ccccc3c21.Cl result="+ (LOQ≦ + <5%)"

Notebook: c1ccc2c3n(nc2c1)CCOC3C1CCNCC1 (stereo not shown) , SD: sedative hypnotic (probability of class match) read as + (LOQ≦ + <5%)

The value of SD: sedative hypnotic (probability of class match) measured for the molecule `CNC[C@@H]1OCCn2nc3ccsc3c21` turned out to be ++ (5%≦ ++ <25%)

====

System: mice
Measurement Protocol: Neuropharmacological Assay (SmartCube)
Assay type: in vivo
Measurement Setup: i.p. 15 min before behavioral test; 3 doses, most efficacious dose(s) presented
Text: Neurosci. […] As reported in Roberds, because psychiatric diseases generally result from disorders of cell-cell communication or circuitry, intact systems are useful in detecting improvement in disease-relevant endpoints. These endpoints are typically behavioral in nature, often requiring human observation and interpretation. […] where LOQ is the limit of quantification. […]
Experimental Endpoint: HA: hallucinogen (probability of class match)

Answered examples (5):
compound="Cl.NCC1OCCn2nc3cc(F)ccc3c21 (stereo not drawn) [Compound 12]" result="+ (LOQ≦ + <5%)"
compound="CN(C)CC1OCCCn2nc3ccccc3c21.Cl (stereo not drawn) [Compound 52]" result="+ (LOQ≦ + <5%)"
compound="CC(C)NCC1OCCn2nc3ccccc3c21 (stereo not drawn) [Compound 17]" result="+ (LOQ≦ + <5%)"
compound="CN(CC1OCCCn2nc3ccccc3c21)C1CCC1.Cl (stereo not drawn) [Compound 55]" result="+ (LOQ≦ + <5%)"
compound="CN[C@H](C)[C@H]1OCCn2nc3ccccc3c21.Cl (relative stereo) [Compound 31]" result="+ (LOQ≦ + <5%)"

Record CN1CC[C@H]1C1OCCn2nc3ccccc3c21 (stereo partly drawn) [Compound 65] . Reported HA: hallucinogen (probability of class match): + (LOQ≦ + <5%)

Value of measured HA: hallucinogen (probability of class match) for the entry NCC1OCCn2nc3ccccc3c21 (stereo not drawn) [Compound 15] : + (LOQ≦ + <5%)

Record c1ccc2c3n(nc2c1)CCOC3CN1CCCC1 (stereo not drawn) [Compound 19] . Reported HA: hallucinogen (probability of class match): + (LOQ≦ + <5%)

# HA: hallucinogen (probability of class match) (compound: c1ccc2c3n(nc2c1)CCOC3C1CNC1 (stereo not drawn) [Compound 66] ) is + (LOQ≦ + <5%)

# compound CCNCC1OCCn2nc3ccccc3c21.Cl (stereo not drawn) [Compound 18] ; its HA: hallucinogen (probability of class match) = + (LOQ≦ + <5%)

The value of HA: hallucinogen (probability of class match) measured for the compound Cl.c1ccc2c3n(nc2c1)CCO[C@@H]3[C@@H]1COCCN1 (racemic) [Compound 45] turned out to be + (LOQ≦ + <5%)

Value of measured HA: hallucinogen (probability of class match) for the entry CN(C)CC1OCCn2nc3ccc(Cl)cc3c21.Cl (stereo not drawn) [Compound 6] : + (LOQ≦ + <5%)

For this compound ( CN(C)CC1OCCn2nc3ccsc3c21.Cl (stereo not drawn) [Compound 59] ), measured HA: hallucinogen (probability of class match) is + (LOQ≦ + <5%)

Record CN(C)CC1OCCn2nc3cc(F)ccc3c21.Cl (stereo not drawn) [Compound 11] , field HA: hallucinogen (probability of class match): + (LOQ≦ + <5%)

Value of HA: hallucinogen (probability of class match) reported for the compound CN(C)C[C@H]1OCCn2nc3ccccc3c21.Cl [Compound 4] is ++ (5%≦ ++ <25%)

For this compound ( c1ccc2c3n(nc2c1)CCOC31CCNCC1 [Compound 36] ), measured HA: hallucinogen (probability of class match) is + (LOQ≦ + <5%)

Form: compound = CNCC1OCCn2nc3ccccc3c21 (stereo not drawn) [Compound I-4] ; HA: hallucinogen (probability of class match) = ++ (5%≦ ++ <25%)

Value of HA: hallucinogen (probability of class match) reported for the compound c1ccc2c3n(nc2c1)CCOC3CNC1CC1 (stereo not drawn) [Compound 21] is + (LOQ≦ + <5%)

Briefly, HA: hallucinogen (probability of class match) measured for CN1CCO[C@@H]([C@@H]2OCCn3nc4ccccc4c32)C1 [Compound 25] : + (LOQ≦ + <5%)

Field HA: hallucinogen (probability of class match) (entry CNCC1OCCn2nc3cc(F)ccc3c21 (stereo not drawn) [Compound 10] ) reads + (LOQ≦ + <5%)

Noted for CNC[C@@H]1OCCn2nc3ccccc3c21 [Compound 1] : its HA: hallucinogen (probability of class match) reads + (LOQ≦ + <5%)

Note to self: HA: hallucinogen (probability of class match) recorded for CNCC1OCCn2nc3ccc(Cl)cc3c21.Cl (stereo not drawn) [Compound 5] was + (LOQ≦ + <5%)

Sure, the documented HA: hallucinogen (probability of class match) for CCN(C)C[C@@H]1OCCn2nc3ccccc3c21.Cl [Compound 49] is + (LOQ≦ + <5%)

The compound listed as Cl.c1ccc2c3n(nc2c1)CCOC3[C@@H]1COCCN1 (stereo partly drawn) [Compound 43] has a reported HA: hallucinogen (probability of class match) of + (LOQ≦ + <5%)

Record CC(C)N(C)CC1OCCCn2nc3ccccc3c21.Cl (stereo not drawn) [Compound 54] , field HA: hallucinogen (probability of class match): + (LOQ≦ + <5%)
